Attribution: patent US12054449B2

procedure-summary: Log D (shake flask at pH 5) and Log P
Format: physicochemical
condition-summary: shake flask
readout-kind: logD
Please state the value as a number alone, without comment.

The compound listed as `C[C@H](OC(N)=O)[C@@H](O)c1ccccc1Cl` shows logD equal to 1.32

====

procedure-summary: Thermodynamic solubility by UPLC in biological media (FaSSGF, FaSSIF)
Assay type: physicochemical
condition-summary: fasted simulated gastric fluid (FaSSGF), fassgf or other biorelevant, thermodynamic from solid; fasted simulated gastric fluid, 37° C., 24 h orbital shaker; all solids dissolved; read-out: FaSSGF solubility after 24 h
readout-kind: solubility at 24 h
The answer consists of two parts: a number and, after it, its unit.

Form: molecule = `C[C@H](OC(N)=O)[C@@H](O)c1ccccc1Cl` ; solubility at 24 h = 16.8 mg/mL
